# MEASURED_ON: Activin receptor type-1 (Homo sapiens)
# Sequence (Q04771 whole entry): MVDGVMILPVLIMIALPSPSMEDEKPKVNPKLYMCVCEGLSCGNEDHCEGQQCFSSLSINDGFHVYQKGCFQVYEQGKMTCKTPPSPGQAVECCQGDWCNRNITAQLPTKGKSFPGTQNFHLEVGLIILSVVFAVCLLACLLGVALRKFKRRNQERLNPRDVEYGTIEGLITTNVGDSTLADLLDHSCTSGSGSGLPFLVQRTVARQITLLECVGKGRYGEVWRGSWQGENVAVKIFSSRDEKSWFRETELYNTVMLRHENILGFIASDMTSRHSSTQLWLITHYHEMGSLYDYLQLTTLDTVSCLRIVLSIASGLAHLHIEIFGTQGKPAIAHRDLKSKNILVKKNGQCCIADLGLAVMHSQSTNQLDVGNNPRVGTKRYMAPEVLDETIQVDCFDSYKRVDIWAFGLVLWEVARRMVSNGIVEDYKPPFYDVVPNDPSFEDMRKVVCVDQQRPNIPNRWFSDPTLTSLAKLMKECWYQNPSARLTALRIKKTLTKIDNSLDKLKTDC
Active and inactive are the calls of the source.
Possible outcomes: Y for active, N for inactive

{"columns": ["COMPOUND", "LABEL"],
 "data": [
  ["CC(C)c1cc(CNc2nc(Nc3cc(C4CC4)[nH]n3)cc(N3CCN(C)CC3)n2)on1 [XL-228]", "Y"],
  ["Cc1csc(-c2nnc(Nc3ccc(Oc4ncccc4-c4ccnc(N)n4)cc3)c3ccccc23)c1 [AMG-900]", "N"],
  ["CNC(=O)c1cccc2cc(Oc3ccnc4cc(OCC5(N)CC5)c(OC)cc34)ccc12 [LUCITANIB]", "N"],
  ["Cn1cc(-c2cnn3c(N)c(Br)c([C@@H]4CCCNC4)nc23)cn1 [SCH-900776]", "N"],
  ["Cc1nc(NC(=O)N2CCC[C@H]2C(N)=O)sc1-c1ccnc(C(C)(C)C(F)(F)F)c1 [ALPELISIB]", "N"],
  ["CN(C[C@@H]1COCCO1)S(=O)(=O)Nc1ccc2ccc3ncc(-c4cnn(C)c4)cc3c(=O)c2c1 [MK-2461]", "N"],
  ["C=CC(=O)Nc1cc2c(Nc3ccc(F)c(Cl)c3)ncnc2cc1C#CC(C)(C)N1CCN(C)CC1 [AV-412 FREE BASE]", "N"],
  ["C[C@@H](N)c1ccc(C(=O)Nc2ccnc3[nH]ccc23)cc1 [Y-39983]", "N"]
]}

* * *

# MEASURED_ON: Ephrin type-A receptor 4 (Homo sapiens, UniProt P54764)
# Sequence (P54764 whole entry): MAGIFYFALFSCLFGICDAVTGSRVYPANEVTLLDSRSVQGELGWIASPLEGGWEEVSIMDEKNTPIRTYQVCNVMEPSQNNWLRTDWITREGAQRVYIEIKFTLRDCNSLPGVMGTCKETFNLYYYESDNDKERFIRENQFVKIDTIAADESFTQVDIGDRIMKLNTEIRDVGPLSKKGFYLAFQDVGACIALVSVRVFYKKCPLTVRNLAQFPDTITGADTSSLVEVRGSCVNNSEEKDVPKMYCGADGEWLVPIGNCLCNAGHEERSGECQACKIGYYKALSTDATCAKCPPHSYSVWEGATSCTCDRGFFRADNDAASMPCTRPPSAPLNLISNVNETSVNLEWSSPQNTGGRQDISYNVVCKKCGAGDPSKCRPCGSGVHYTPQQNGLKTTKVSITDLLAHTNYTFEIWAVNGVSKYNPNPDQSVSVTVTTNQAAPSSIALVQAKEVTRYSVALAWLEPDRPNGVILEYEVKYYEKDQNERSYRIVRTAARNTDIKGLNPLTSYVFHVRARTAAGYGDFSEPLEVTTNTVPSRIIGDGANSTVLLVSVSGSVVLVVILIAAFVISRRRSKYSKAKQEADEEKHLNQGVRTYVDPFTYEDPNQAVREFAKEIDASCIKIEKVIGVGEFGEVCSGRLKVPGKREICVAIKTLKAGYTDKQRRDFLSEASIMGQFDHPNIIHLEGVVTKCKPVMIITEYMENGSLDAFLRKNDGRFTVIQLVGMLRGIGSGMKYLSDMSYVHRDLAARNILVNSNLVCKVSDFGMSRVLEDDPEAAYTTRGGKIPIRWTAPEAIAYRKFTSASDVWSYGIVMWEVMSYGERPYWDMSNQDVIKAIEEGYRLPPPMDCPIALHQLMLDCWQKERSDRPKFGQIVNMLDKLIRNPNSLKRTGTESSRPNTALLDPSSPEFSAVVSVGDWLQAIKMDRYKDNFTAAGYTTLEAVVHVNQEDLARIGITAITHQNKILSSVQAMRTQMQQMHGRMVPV
The source made the active and inactive calls.
Possible outcomes: active, inactive

{"columns": ["MOLECULE", "LABEL"],
 "data": [
  ["O=C(Nc1cc(C(F)(F)F)cc(C(F)(F)F)c1)c1cc(Cl)ccc1O [IMD-0354]", "inactive"],
  ["CCn1cc(-c2ccnc3[nH]c(-c4cccc(CN(C)C)c4)cc23)c(-c2ccc(NC(=O)N(C)C)cc2)n1 [GSK-1070916]", "inactive"],
  ["Cc1nc(Nc2n[nH]c3c2CN(C(=O)N[C@H](CN(C)C)c2ccccc2)C3(C)C)c2sccc2n1 [PF-03758309]", "inactive"],
  ["CNC(=O)c1nn(C)c2c1C(C)(C)Cc1cnc(Nc3ccc(N4CCN(C)CC4)cc3)nc1-2 [MILCICLIB]", "active"],
  ["N#CC1(c2ccc(NC(=O)c3cccnc3NCc3ccncc3)cc2)CCCC1 [RIVOCERANIB]", "inactive"],
  ["COc1ncc(-c2ccc3nccc(-c4ccnnc4)c3c2)cc1NS(=O)(=O)c1ccc(F)cc1F [OMIPALISIB]", "inactive"],
  ["O=C(Nc1c[nH]nc1-c1nc2cc(CN3CCOCC3)ccc2[nH]1)NC1CC1 [AT-9283]", "active"],
  ["C[C@@H](Oc1cc(C(=O)Nc2ccc(C(=O)N3CCN(C)CC3)cc2)nnc1N)c1c(Cl)ccc(F)c1Cl", "inactive"]
]}

* * *

A short record of Kd observed with Chromodomain-helicase-DNA-binding protein 4 (Homo sapiens, UniProt Q14839) follows.
Sequence (Q14839 whole entry): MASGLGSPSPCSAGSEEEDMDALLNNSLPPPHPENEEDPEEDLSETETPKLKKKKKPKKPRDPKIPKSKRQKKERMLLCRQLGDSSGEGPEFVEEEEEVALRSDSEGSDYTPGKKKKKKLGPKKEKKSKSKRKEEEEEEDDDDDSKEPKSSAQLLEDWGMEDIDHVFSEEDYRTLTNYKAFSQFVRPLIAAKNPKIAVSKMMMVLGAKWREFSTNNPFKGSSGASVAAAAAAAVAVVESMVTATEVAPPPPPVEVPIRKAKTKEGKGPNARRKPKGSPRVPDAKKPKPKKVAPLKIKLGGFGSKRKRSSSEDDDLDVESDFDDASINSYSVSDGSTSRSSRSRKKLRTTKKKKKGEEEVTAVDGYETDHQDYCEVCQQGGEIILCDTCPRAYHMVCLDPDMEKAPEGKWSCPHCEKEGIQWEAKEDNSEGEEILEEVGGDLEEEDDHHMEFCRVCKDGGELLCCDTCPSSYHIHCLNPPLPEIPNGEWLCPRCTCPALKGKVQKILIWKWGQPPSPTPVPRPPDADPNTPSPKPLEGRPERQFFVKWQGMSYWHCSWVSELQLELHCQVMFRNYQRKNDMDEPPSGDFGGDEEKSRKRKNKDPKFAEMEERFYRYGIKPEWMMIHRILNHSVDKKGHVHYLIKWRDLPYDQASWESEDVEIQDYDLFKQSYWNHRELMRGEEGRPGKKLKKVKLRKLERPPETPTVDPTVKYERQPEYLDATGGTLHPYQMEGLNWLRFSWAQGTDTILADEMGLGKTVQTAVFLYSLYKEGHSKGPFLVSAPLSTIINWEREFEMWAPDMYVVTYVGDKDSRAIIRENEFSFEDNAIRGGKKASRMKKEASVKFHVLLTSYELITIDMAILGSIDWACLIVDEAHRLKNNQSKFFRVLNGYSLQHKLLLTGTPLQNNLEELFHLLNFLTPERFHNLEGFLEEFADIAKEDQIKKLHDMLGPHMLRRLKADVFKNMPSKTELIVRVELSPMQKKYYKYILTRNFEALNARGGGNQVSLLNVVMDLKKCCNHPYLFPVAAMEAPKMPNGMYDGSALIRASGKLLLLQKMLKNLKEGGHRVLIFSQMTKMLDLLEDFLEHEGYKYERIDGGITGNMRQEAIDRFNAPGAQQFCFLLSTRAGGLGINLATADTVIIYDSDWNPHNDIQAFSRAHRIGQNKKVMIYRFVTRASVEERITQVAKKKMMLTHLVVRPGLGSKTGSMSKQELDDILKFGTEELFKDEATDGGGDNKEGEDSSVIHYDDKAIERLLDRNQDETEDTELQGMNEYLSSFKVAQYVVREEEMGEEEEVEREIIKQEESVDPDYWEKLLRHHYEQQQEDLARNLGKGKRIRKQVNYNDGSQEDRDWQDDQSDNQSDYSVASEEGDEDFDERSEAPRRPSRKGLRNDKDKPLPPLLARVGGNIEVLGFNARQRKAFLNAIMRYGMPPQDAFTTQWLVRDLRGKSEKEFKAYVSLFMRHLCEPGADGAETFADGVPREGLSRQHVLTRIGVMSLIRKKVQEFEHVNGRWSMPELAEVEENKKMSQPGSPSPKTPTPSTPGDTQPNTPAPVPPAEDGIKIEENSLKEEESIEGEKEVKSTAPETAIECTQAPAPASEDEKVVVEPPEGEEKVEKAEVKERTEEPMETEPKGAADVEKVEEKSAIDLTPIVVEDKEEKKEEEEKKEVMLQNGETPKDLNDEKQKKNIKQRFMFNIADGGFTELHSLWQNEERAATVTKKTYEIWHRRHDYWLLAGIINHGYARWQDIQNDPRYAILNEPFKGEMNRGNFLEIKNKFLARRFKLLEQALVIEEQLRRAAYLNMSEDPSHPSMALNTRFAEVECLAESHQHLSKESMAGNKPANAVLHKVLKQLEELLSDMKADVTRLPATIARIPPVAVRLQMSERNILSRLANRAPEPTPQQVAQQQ
Active and inactive are the calls of the source.

{"columns": ["COMPOUND", "Kd"],
 "data": [
  ["CNC(=O)c1ccccc1Sc1ccc2c(/C=C/c3ccccn3)n[nH]c2c1 [AXITINIB]", "> 30 µM (inactive)"],
  ["FC(F)(F)c1ccc(/C=C/c2nc(COc3ccc(CCCCn4ccnn4)cc3)co2)cc1 [MUBRITINIB]", "> 30 µM (inactive)"],
  ["Cc1nc(NC(=O)N2CCC[C@H]2C(N)=O)sc1-c1ccnc(C(C)(C)C(F)(F)F)c1 [ALPELISIB]", "> 30 µM (inactive)"],
  ["N#CC[C@H](C1CCCC1)n1cc(-c2ncnc3[nH]ccc23)cn1 [RUXOLITINIB]", "> 30 µM (inactive)"],
  ["O=c1[nH]ccc2cc(OC3CCNCC3)ccc12 [SAR-407899 FREE BASE]", "> 30 µM (inactive)"],
  ["O=C1NC(=O)[C@@H](c2cn3c4c(cccc24)CCC3)[C@@H]1c1c[nH]c2ccccc12 [TIVANTINIB]", "> 30 µM (inactive)"],
  ["N#CC1(c2ccc(NC(=O)c3cccnc3NCc3ccncc3)cc2)CCCC1 [RIVOCERANIB]", "> 30 µM (inactive)"],
  ["O=C(Nc1nc2cccc(-c3ccc(CN4CCS(=O)(=O)CC4)cc3)n2n1)C1CC1 [FILGOTINIB]", "> 30 µM (inactive)"]
]}

* * *

Attribute: Kd
# MEASURED_ON: Casein kinase II subunit alpha' (Homo sapiens)
# Sequence (P19784 whole entry): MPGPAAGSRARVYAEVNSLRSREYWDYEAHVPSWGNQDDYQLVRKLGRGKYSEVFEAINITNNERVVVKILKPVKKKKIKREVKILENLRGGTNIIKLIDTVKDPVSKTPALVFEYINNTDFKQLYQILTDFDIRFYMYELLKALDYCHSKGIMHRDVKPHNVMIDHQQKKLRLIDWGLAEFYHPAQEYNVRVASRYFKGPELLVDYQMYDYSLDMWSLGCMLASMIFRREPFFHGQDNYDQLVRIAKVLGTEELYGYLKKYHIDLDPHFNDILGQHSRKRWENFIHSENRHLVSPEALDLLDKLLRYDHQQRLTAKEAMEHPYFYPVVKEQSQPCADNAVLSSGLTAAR
The source made the active and inactive calls.

{"columns": ["COMPOUND", "Kd"],
 "data": [
  ["CNC(=O)c1cc(Oc2ccc(NC(=O)Nc3cc(C(C)(C)C)nn3-c3ccc4ncccc4c3)c(F)c2)ccn1", "> 30 µM (inactive)"],
  ["O=c1[nH]ccc2cc(OC3CCNCC3)ccc12 [SAR-407899 FREE BASE]", "> 30 µM (inactive)"],
  ["CNC(=O)c1nn(C)c2c1C(C)(C)Cc1cnc(Nc3ccc(N4CCN(C)CC4)cc3)nc1-2", "3.5 µM (active)"],
  ["C#Cc1cccc(Nc2ncnc3cc(OC)c(OCCCCCCC(=O)NO)cc23)c1", "> 30 µM (inactive)"],
  ["Cc1nc2cc(-c3nn(C(C)C)c4ncnc(N)c34)ccc2o1", "> 30 µM (inactive)"],
  ["C=CC(=O)N1CCC[C@H](n2c(=O)n(-c3ccc(Oc4ccccc4)cc3)c3c(N)ncnc32)C1", "> 30 µM (inactive)"],
  ["CN1CCN(CCOc2cc(OC3CCOCC3)c3c(Nc4c(Cl)ccc5c4OCO5)ncnc3c2)CC1", "> 30 µM (inactive)"],
  ["CCCCCCCCCCCCCCCCCCOP(=O)([O-])OC1CC[N+](C)(C)CC1", "> 30 µM (inactive)"],
  ["Cn1cc(-c2cnn3c(N)c(Br)c([C@@H]4CCCNC4)nc23)cn1", "0.279 µM (active)"],
  ["Cc1cnc(NC(=O)Nc2cc(Br)c(C)cc2OC[C@@H]2CNCCO2)cn1", "> 30 µM (inactive)"],
  ["CN1C/C=C/CCOc2cccc(c2)-c2ccnc(n2)Nc2cccc(c2)C1", "2.3 µM (active)"],
  ["O=C(Nc1cc(C(F)(F)F)cc(C(F)(F)F)c1)c1cc(Cl)ccc1O", "> 30 µM (inactive)"],
  ["CC(C)c1cc(CNc2nc(Nc3cc(C4CC4)[nH]n3)cc(N3CCN(C)CC3)n2)on1", "2.44 µM (active)"],
  ["C=CC(=O)Nc1cc2c(Nc3ccc(F)c(Cl)c3)ncnc2cc1C#CC(C)(C)N1CCN(C)CC1 [AV-412 FREE BASE]", "> 30 µM (inactive)"],
  ["CO[C@H]1C[C@@H]2CC[C@@H](C)[C@@](O)(O2)C(=O)C(=O)N2CCCC[C@H]2C(=O)O[C@H]([C@H](C)C[C@@H]2CC[C@@H](OP(C)(C)=O)[C@H](OC)C2)CC(=O)[C@H](C)/C=C(\\C)[C@@H](O)[C@@H](OC)C(=O)[C@H](C)C[C@H](C)/C=C/C=C/C=C/1C", "> 30 µM (inactive)"]
]}

* * *

Attribute: Kd
# MEASURED_ON: Casein kinase I isoform gamma-1 (Homo sapiens)
# Sequence (Q9HCP0 whole entry, canonical isoform): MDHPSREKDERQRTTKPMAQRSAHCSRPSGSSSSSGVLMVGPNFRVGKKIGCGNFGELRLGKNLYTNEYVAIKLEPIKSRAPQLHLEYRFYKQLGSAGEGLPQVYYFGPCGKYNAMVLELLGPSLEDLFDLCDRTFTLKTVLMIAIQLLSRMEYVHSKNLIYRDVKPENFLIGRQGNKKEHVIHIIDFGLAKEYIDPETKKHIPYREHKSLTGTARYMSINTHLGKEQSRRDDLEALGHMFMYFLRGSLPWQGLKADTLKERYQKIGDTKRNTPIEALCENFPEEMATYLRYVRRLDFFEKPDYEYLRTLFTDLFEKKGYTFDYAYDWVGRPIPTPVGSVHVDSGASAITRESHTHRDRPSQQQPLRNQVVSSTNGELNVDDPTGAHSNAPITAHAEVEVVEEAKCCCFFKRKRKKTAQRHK
Active and inactive are the calls of the source.

{"columns": ["COMPOUND", "Kd"],
 "data": [
  ["COc1cc2c(Nc3ccc(Cl)c(Cl)c3F)ncnc2cc1OC[C@@H]1C[C@@H]2CN(C)C[C@@H]2C1 [TESEVATINIB]", "> 30 µM (inactive)"],
  ["CO[C@H]1C[C@@H]2CC[C@@H](C)[C@@](O)(O2)C(=O)C(=O)N2CCCC[C@H]2C(=O)O[C@H]([C@H](C)C[C@@H]2CC[C@@H](O)[C@H](OC)C2)CC(=O)[C@H](C)/C=C(\\C)[C@@H](O)[C@@H](OC)C(=O)[C@H](C)C[C@H](C)/C=C/C=C/C=C/1C [SIROLIMUS]", "> 30 µM (inactive)"],
  ["Cn1ncc(Cl)c1-c1cc(C(=O)N[C@H](CN)Cc2ccc(F)c(F)c2)oc1Cl [UPROSERTIB]", "> 30 µM (inactive)"]
]}
